Tested on: M14 melanoma
Assay: NCI tumour cell line growth inhibition, 48 h
In this section, each of the compounds is paired with its reported TGI.

Here are 5 compounds together with their reported answers.
compound	target-desc	assay-readout	result
Oc1ccc(-c2c3ccccc3c(-c3ccc(O)cc3)c3ccccc23)cc1	M14 melanoma	TGI	> 100 µM
C1=N[C@]23C(=N[C@H](N=C2NCc2ccco2)[C@]24N=CNC2=N[C@H]3N=C4NCc2ccco2)N1	M14 melanoma	TGI	> 100 µM
O=C(CCC(=O)Nc1ccccc1C(F)(F)F)N/N=C1\C(=N\NC(=O)CCC(=O)Nc2ccccc2C(F)(F)F)C(c2ccc3c(c2)OCO3)Oc2ccccc21 (stereo unspecified)	M14 melanoma	TGI	> 100 µM
O=[N+]([O-])c1ccc(CSc2nn(Cc3ccc([N+](=O)[O-])cc3)cc3ncnc2-3)cc1	M14 melanoma	TGI	> 100 µM
C/C=C1/CN2CCC34C(=C(C(=O)OC)C1CC23)Nc1ccc(O)cc14 (stereo unspecified)	M14 melanoma	TGI	> 100 µM

TGI reading for `O=c1cc(-c2ccc(Cl)cc2)[nH]c2ccccc12` : > 100 µM

TGI reading for `Cc1ccc2nc(N)[nH]c(=O)c2c1Sc1ccncc1` : > 100 µM

TGI reading for `CN1CCN(CCCOc2cccc3nc(Nc4cc(Cl)cc(Cl)c4)ccc23)CC1` : 3.28 µM

TGI reading for `O=C(Nc1ccccc1)c1cc2ccccc2c(N=Nc2cccc([N+](=O)[O-])c2)c1O` : > 100 µM

TGI reading for `N#Cc1ncc(C(Cl)Cl)nc1Cl` : 2.82 µM

TGI reading for `Cc1sc2c(c1C)C(=O)c1cccn1-2` : > 100 µM

TGI reading for `CC[C@H](C)[C@H](NC(=O)N(CCC#N)CCN(CCN(C(=O)N[C@@H](Cc1ccccc1)C(=O)OC)c1ccccc1)C(=O)N[C@H](C(=O)OC)C(C)C)C(=O)OC` : 44.8 µM

TGI reading for CC1CC(C[N+](=O)[O-])CC2(C1)OCCO2 (stereo unspecified) : > 100 µM

TGI reading for CC(=O)N1C(C(=O)NN2CCOCC2)CSC1c1ccccc1 (stereo unspecified) : > 100 µM

TGI reading for `Nc1nc(Cl)cc(NCC2(CO)CCCCC2)n1` : > 100 µM

TGI reading for `C=CC(=O)N[C@@H]1CN(c2nc(Nc3cn(C)nc3OC)c3ncn(C)c3n2)C[C@H]1F` : 61.6 µM

TGI reading for `COc1ccc2c(c1)CC[C@@H]1[C@@H]2CC[C@]2(C)/C(=N/OCCN3CCCC3)CC[C@@H]12` : 2.64 µM

TGI reading for `N=c1c2sc3nc4ccccc4n3c2ncn1Cc1ccccc1` : > 100 µM

TGI reading for `C=C1CC[C@@]2(C)[C@@H]([C@@H]1C)[C@H]1CC[C@@H]3[C@@]4(C)CC[C@H](O)C(C)(C)[C@@H]4CC[C@@]3(C)[C@]1(C)C[C@@H]2O` : 32.7 µM
